In this section we review reported IgE concentration detected values for a set of binders.
# targetEntity: T1, cynomolgus monkey IgE (cynomolgus monkey)
# T1 construct: serum was used as the source of IgE; also called cynomolgus IgE; cyno IgE
# assayExplanation: capture ELISA, antibody coated; Test 1, Cyno 2 serum
I only need the number, in ng/mL, no unit after it.

Would you please look over these solved cases?
6.605.1 Hc-H3Q,M13K,D82E Lc-T25A,T53S (antibody, human IgG2, kappa, V domains shown, human IgG2 kappa; the entries already hold the substitutions; also called 6.605.1 (H3Q,M13K,D82E-T25A,T53S); 6.605.1 QKE/AS) VH: QVQLVQSGAEVKKPGASVKVSCKASGYTFTSYGISWVRQAPGQGLEWMGWISAYNGNTNYAQKLQGRITMTTDTSTSTAYMELRSLRSDDTAVYYCARDGDYYDPFDYWGQGTLVTVSS VL: DIQMTQSPSSLSASVGDRVTITCRASQSISNWLNWYQQKPGKAPKLLIYGASSLKSGVPSRFSGSESGTDFTLTISSLQPEDFATYYCQQSYSTPPTFGQGTKVEIKR    103
5.396.1 Hc-S103N Lc-K61R (antibody, human IgG2, kappa, V domains shown, human IgG2 kappa; the entries already hold the substitutions S103N (Hc) and K61R (Lc); also called 5.396.1 (S103N/K61R); 5.396.1 N/R) VH: QVQLQQWGAGLLKPSETLSLTCAVYGGSFSGYYWSWIRQPPGKGLEWIGEIHHSGSTNYNPSLKSRVTISVDTSKNQFSLKLSSVTAADTAVYYCARDNWNDNFYYYYGMDVWGQGTTVTVSS VL: DIQMTQSPSSLSASVGDRVTITCRASQGISNHLAWFQQKPGKAPKSLIYAASSLQSGVPSRFSGSGSGTDFTLTISSLQPEDFATYYCQQYNRHPFTFGPGTKVDIKR    0
recombinant 5.396.1 (antibody, human IgG2, kappa, V domains shown, human IgG2 kappa, expressed in 293 Freestyle cells; also called 5.396.1 (recombinant)) VH: QVQLQQWGAGLLKPSETLSLTCAVYGGSFSGYYWSWIRQPPGKGLEWIGEIHHSGSTNYNPSLKSRVTISVDTSKNQFSLKLSSVTAADTAVYYCARDNWNDSFYYYYGMDVWGQGTTVTVSS VL: DIQMTQSPSSLSASVGDRVTITCRASQGISNHLAWFQQKPGKAPKSLIYAASSLQSGVPSKFSGSGSGTDFTLTISSLQPEDFATYYCQQYNRHPFTFGPGTKVDIKR    0

Here's the next entry for you.
Given the entry recombinant 6.605.1 (antibody, human IgG2, kappa, V domains shown, human IgG2 kappa; also called 6.605.1 (recombinant)) VH: QVHLVQSGAEVKMPGASVKVSCKASGYTFTSYGISWVRQAPGQGLEWMGWISAYNGNTNYAQKLQGRITMTTDTSTSTAYMDLRSLRSDDTAVYYCARDGDYYDPFDYWGQGTLVTVSS VL: DIQMTQSPSSLSASVGDRVTITCRTSQSISNWLNWYQQKPGKAPKLLIYGASTLKSGVPSRFSGSESGTDFTLTISSLQPEDFATYYCQQSYSTPPTFGQGTKVEIKR , report its measured IgE concentration detected.
91

This collection of values is drawn from patent US20110064726A1.
